molecules and their reported half-life at 1 mg/ml
Experiment: Half life in CD1 mouse duodenum whole organ extracts assessed as half life at 1 mg/ml at 37 degC by HPLC
Type: ADME, tissue-based
Non-standard residues stand in square brackets, D forms with d. Residues, ends and D or L forms follow the SMILES beside them. *: point of attachment. Bip = N[C@@H](Cc1ccc(-c2ccccc2)cc1)C(=O)O; hArg = N=C(N)NCCCC[C@H](N)C(=O)O; Agp = N=C(N)NC[C@H](N)C(=O)O; NHBn = c1ccc(CN*)cc1

Molecule | half-life at 1 mg/ml
N=C(N)NCCCC[C@H](NC(=O)[C@H](Cc1ccc(-c2ccccc2)cc1)NC(=O)[C@@H](N)CCCNC(=N)N)C(=O)NCc1ccccc1 (H-Arg-[Bip]-[hArg]-NHBn) | 1.37 h
N=C(N)NCCC[C@H](NC(=O)[C@H](Cc1ccc(-c2ccccc2)cc1)NC(=O)[C@@H](N)CCCNC(=N)N)C(=O)NCc1ccccc1 (H-Arg-[Bip]-Arg-NHBn) | 0.102 h
N=C(N)NCCC[C@H](N)C(=O)N[C@@H](Cc1ccc(-c2ccccc2)cc1)C(=O)N[C@@H](CNC(=N)N)C(=O)NCc1ccccc1 (H-Arg-[Bip]-[Agp]-NHBn) | 5.39 h

Origin of measurements: ChEMBL document CHEMBL2163284
